- protocol summary: small-molecule binders of probe aInhba, primary screen, biochemical, small-molecule microarray, 635/667 nm fluorescence (AID 1148);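 note: score merges 667nm spot fluorescence with signal-to-noise for antibody binding to printed compounds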
- condition set: higher = more signal
measured attribute: composite z-score
One number for each entry.

Use the examples below as a reference point.
C=CC[C@@H]1C=C[C@H](ON=C[C@@H](NS(=O)(=O)c2ccc(C)cc2)[C@H](C)C=CCC(=O)OC)[C@@H](CO)O1 ... 0.138
CC(C)(C)N1C(=O)[C@H]2[C@H]3[C@H](O)[C@H](O)CC(=NOC[C@@H](O)COCc4ccco4)[C@@H]3CC[C@H]2C1=O ... -0.101

Give me composite z-score for each of these compounds, listed below.
1. COCOc1ccc(Br)cc1C(=O)C=Cc1ccc2c(c1)OCO2
2. C#CCCCON=C1C[C@@H](O)[C@@H](O)[C@@H]2[C@@H]3C(=O)N(C4CCCCC4)C(=O)[C@@H]3CC[C@@H]12
3. COC(OC)[C@@H](C)[C@H](OC)[C@@H](C)[C@H](OC)c1ccccc1

Found:
-0.182
-0.286
-0.321

* * *

- Tested on: glycogen synthase kinase-3 (GSK3A per assay name; protocol says GSK3B)
- protocol summary: GSK3 binders on small-molecule microarrays, primary screen, biochemical, small-molecule microarray, 635 nm fluorescence, GSK3A (AID 1103); note: the record names both GSK3A and GSK3B
- condition set: small-molecule microarray binding, fluorescence 635 nm; higher = more signal
measured attribute: composite z-score
Answers are plain numbers.

Example results:
COc1ccc2c(c1)O[C@@H](c1cccc(C(F)(F)F)c1)[C@H](O)C2=O ... 0.39
C[C@@H]1CC[C@H]2C(=O)OC(Cc3ccccc3)CN2[C@H]1c1ccc(Br)cc1 (stereo partly drawn) ... 0.255
COC(=O)CC=C1c2ccccc2[C@H](OC)[C@H]1C ... -0.234

// each compound listed below needs its composite z-score
1. COC(=O)[C@H](C)NC(=O)CCC1CC(OC(=O)NCc2ccc3c(c2)OCO3)CC2(CCCC(COC(=O)NCCCN3CCCC3=O)O2)O1 (stereo partly drawn)
2. COC(=O)[C@@H]1CC[C@H](C)[C@@H](c2ccc(Br)cc2)N1C[C@@H](O)CN=[N+]=[N-]
3. O=C(NN=C1C[C@@H](O)[C@@H](O)[C@@H]2[C@@H]3C(=O)N(Cc4ccc5c(c4)OCO5)C(=O)[C@@H]3CC[C@@H]12)OCc1ccccc1
4. CC(C)CON=C1C[C@@H](O)[C@@H](O)[C@@H]2[C@@H]3C(=O)N(C(C)(C)C)C(=O)[C@@H]3CC[C@@H]12
5. CCOC(=O)NN=C1C[C@@H](O)[C@@H](O)[C@@H]2[C@@H]3C(=O)N(C[C@@H]4CCCO4)C(=O)[C@@H]3CC[C@H]12

Found:
[1.28, 0.078, -0.456, 1.25, 0.417]

* * *

- target entity: Luciferin 4-monooxygenase (Photinus pyralis) (UniProt P08659)
- Sequence (P08659 whole entry, looked up): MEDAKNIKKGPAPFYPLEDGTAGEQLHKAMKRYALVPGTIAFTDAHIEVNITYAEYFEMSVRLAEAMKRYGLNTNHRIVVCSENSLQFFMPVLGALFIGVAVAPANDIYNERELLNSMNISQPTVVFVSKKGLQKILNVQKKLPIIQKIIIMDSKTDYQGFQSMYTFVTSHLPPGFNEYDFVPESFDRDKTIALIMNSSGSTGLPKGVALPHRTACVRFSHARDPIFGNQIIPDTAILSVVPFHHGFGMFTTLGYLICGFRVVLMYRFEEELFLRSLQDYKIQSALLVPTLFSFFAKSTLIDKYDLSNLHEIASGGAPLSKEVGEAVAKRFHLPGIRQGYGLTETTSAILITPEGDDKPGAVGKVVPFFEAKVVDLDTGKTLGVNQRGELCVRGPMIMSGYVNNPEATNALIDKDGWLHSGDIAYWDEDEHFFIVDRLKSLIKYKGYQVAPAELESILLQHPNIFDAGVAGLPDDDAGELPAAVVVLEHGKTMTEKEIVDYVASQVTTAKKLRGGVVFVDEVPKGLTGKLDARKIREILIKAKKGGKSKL
- protocol summary: firefly luciferase enzyme inhibitors, primary screen, biochemical, luminescence, purified enzyme, 2006 set (AID 1141);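 note: cell-free assay with purified firefly luciferase at 100 ng per well in PBS; test concentration not given here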
- condition set: SteadyGlo luminescence, 30 min, higher = more signal, called active from +8 up or from −8 down
Label 0.0 if z-score falls below 0.6; label 1.0 in every other case.

Example entries begin here.
C#CCCCON=C1C[C@@H](O)[C@@H](O)[C@@H]2[C@@H]3C(=O)N(CC)C(=O)[C@@H]3CC[C@H]12 ... 0.0
COc1ccc(O[C@H]2C=C[C@@H](c3ccccc3)O[C@@H]2CON=C2c3cc(OC)ccc3O[C@H](c3cccc(OC)c3)[C@H]2O)cc1 ... 1.0
COC(=O)[C@@H]1CC[C@H](C)[C@@H](c2ccc(Br)cc2)N1C[C@@H](O)CN=[N+]=[N-] ... 0.0
CCOC(=O)[C@H](CC(C)C)NC(=O)CCC1CC(OC(=O)NCc2ccc3c(c2)OCO3)CC2(CCCC(COC(=O)NCCOc3ccccc3)O2)O1 (some centres not stated) ... 0.0
CC(C)CON=C1C[C@@H](O)[C@@H](O)[C@@H]2[C@@H]3C(=O)N(Cc4ccccc4)C(=O)[C@@H]3CC[C@H]12 ... 1.0

Lookup: Is z-score for C[C@@H](c1ccccc1)N1C(=O)[C@H]2[C@H]3[C@H](O)[C@H](O)CC(=NNC(=O)OCc4ccccc4)[C@@H]3CC[C@H]2C1=O at or above 0.6?
Found: 0.0

Lookup: // next record COC(OC)[C@@H](C)[C@H](OC)[C@@H](C)[C@H](OC)c1ccccc1
Found: 0.0
